system: Saccharomyces cerevisiae; test: protein stability index of tFT-peptide fusion (C-terminal peptide) (PSI (0-1 scale)); higher = more stable (slower turnover); details: genetic background: cdc34-1; temperature: 37 C;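 further: PSI is a weighted mean of sequencing reads over stability bins, variants kept only with over 10 reads, mCherry proximal and sfGFP distal, peptide attached via GGGS linker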
# protein stability index annotations
Experimental readout: protein stability index

# Macromolecule sequence, Result
measured = [
    ("LHLTFRLAVLYY", 0.321),
    ("VRLSQVNRLICT", 0.554),
    ("PRHERPPRDNGH", 0.674),
    ("LLPSNFLLLVGV", 0.219),
    ("PLLVVPVPRALY", 0.675),
    ("PPRPLHPPCRPP", 0.64),
    ("VCLVFLFQFVLI", 0.482),
    ("APPSRRLTLRLA", 0.577),
    ("WVVVARIFSVFF", 0.484),
    ("RSIVFRVSRRLN", 0.65),
    ("CIIAVMISIVSF", 0.0342),
    ("FVVFLLFFMLYH", 0.312),
    ("LMIVSVRLLFFL", 0.229),
    ("TLCHLTLICVRE", 0.221),
    ("PSRRLRHFATSP", 0.623),
    ("MAMMQTILIIIH", 0.0295),
    ("KKTKKTMIIKTT", 0.693),
    ("WFIFATFLILVT", 0.0797),
    ("FCALWLCFRLMV", 0.35),
]

###

system: Saccharomyces cerevisiae; assay: protein stability index of tFT-peptide fusion (C-terminal peptide) (PSI (0-1 scale)); higher = more stable (slower turnover); settings: genetic background: wild type; temperature: 30 C
Label True when protein stability index is at or above 0.6; anything below gets False.

# Macromolecule sequence, Target of assay, Group
rows = [
    ("DQKSGCPVRIYR", "Saccharomyces cerevisiae", "True"),
    ("PSCPAPPAARPL", "Saccharomyces cerevisiae", "True"),
    ("PPVLAPCLPLTG", "Saccharomyces cerevisiae", "True"),
    ("VMWVGAGVSLSC", "Saccharomyces cerevisiae", "True"),
    ("DPARNDTTTETI", "Saccharomyces cerevisiae", "True"),
    ("GRGICFGLPFLR", "Saccharomyces cerevisiae", "True"),
    ("PSLSPYPLQPRY", "Saccharomyces cerevisiae", "True"),
    ("TPLLPPSPPPSR", "Saccharomyces cerevisiae", "False"),
    ("IIFWMWVIIRVY", "Saccharomyces cerevisiae", "False"),
    ("SCMSVRKSSPRS", "Saccharomyces cerevisiae", "True"),
    ("PPPFSPLPLPPS", "Saccharomyces cerevisiae", "True"),
    ("PPSGSFLFSVHP", "Saccharomyces cerevisiae", "True"),
    ("FLPPSRFSPLRL", "Saccharomyces cerevisiae", "True"),
    ("KLKLWSIIKNNA", "Saccharomyces cerevisiae", "False"),
    ("PSPPRKHAPFRP", "Saccharomyces cerevisiae", "True"),
    ("ARSFALLGCRRS", "Saccharomyces cerevisiae", "True"),
    ("GRGLAEGRRITR", "Saccharomyces cerevisiae", "True"),
    ("IVTSFVSPVYIC", "Saccharomyces cerevisiae", "False"),
]

###

// values below are reported protein stability index
system: Saccharomyces cerevisiae; test: protein stability index of tFT-peptide fusion (C-terminal peptide) (PSI (0-1 scale)); higher = more stable (slower turnover); details: genetic background: wild type; temperature: 30 C
Experimental readout: protein stability index

# Macromolecule sequence, Experimental readout, Number
data = [
    ("LRDQEYAMRPPC", "protein stability index", 0.693),
    ("YGGSLLNVFGLG", "protein stability index", 0.645),
    ("APILLFIEPLPP", "protein stability index", 0.563),
    ("PVTAVYFVLYIW", "protein stability index", 0.251),
    ("GRRRTFGRSRGG", "protein stability index", 0.651),
    ("EFAYQSRYKVGR", "protein stability index", 0.694),
    ("PSSSSWPPPRHP", "protein stability index", 0.831),
    ("AAIVVRLCSLLR", "protein stability index", 0.593),
    ("LRDLLVFCDLFR", "protein stability index", 0.695),
    ("SHSHMRRLKMYR", "protein stability index", 0.717),
    ("VRHYSSNFAPFI", "protein stability index", 0.676),
    ("WGGGCGRRIGCR", "protein stability index", 0.719),
    ("RPAGGPSGGEGV", "protein stability index", 0.689),
    ("TPQSLRDAHGSC", "protein stability index", 0.662),
    ("IVDYSRYVIGLE", "protein stability index", 0.663),
    ("GGGGAAGWGAVG", "protein stability index", 0.688),
    ("PPALPRFPACTT", "protein stability index", 0.714),
    ("LLDVFFPRFFCH", "protein stability index", 0.611),
    ("HPCKKEKLYHLK", "protein stability index", 0.594),
    ("KQGKKKDEWTRG", "protein stability index", 0.694),
    ("PGPLVFPLPLAC", "protein stability index", 0.578),
    ("LLSHPDLPPIPP", "protein stability index", 0.503),
    ("RAQQRVKERYIE", "protein stability index", 0.432),
    ("GAGASEGEPMED", "protein stability index", 0.7),
    ("SRGMRNPLSADR", "protein stability index", 0.645),
    ("PPILRPAKSAQG", "protein stability index", 0.705),
    ("SSIGPTECSYFS", "protein stability index", 0.678),
    ("SSGVIIGRIAVK", "protein stability index", 0.603),
    ("SASVLVLRRSSP", "protein stability index", 0.732),
    ("SYWNSSPKCGNW", "protein stability index", 0.744),
    ("FAPRRDPMQVQY", "protein stability index", 0.674),
    ("SAAVDSPIFPSS", "protein stability index", 0.692),
    ("LLPSRAPTSIPL", "protein stability index", 0.686),
    ("LPSPPPLISLIP", "protein stability index", 0.644),
    ("VRGRGSGGGVAG", "protein stability index", 0.675),
    ("EKQKGIVQADKI", "protein stability index", 0.665),
    ("GRFVVHEEVWFV", "protein stability index", 0.696),
    ("RGSQRVVVSLGW", "protein stability index", 0.726),
    ("SGSRFRTVRAPE", "protein stability index", 0.654),
    ("RWPLVIRSLIVF", "protein stability index", 0.294),
    ("RLKKKKKEIKRR", "protein stability index", 0.721),
]
